biological target: MERTK (UniProt Q12866); experiment: phosphorylation enrichment, bacterial display (enrichment ratio); higher = better substrate or ligand; peptides without Tyr show the background;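 also: 11-residue human phosphosite peptides and single-mutation variants displayed on the E. coli surface, counted by deep sequencing, each peptide's frequency after selection divided by its frequency in the unselected input library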;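 also: frequency after pTyr selection over input frequency; kinase dosed for 20-30% of maximal phosphorylation in three min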
Sequence (Q12866 whole entry, looked up): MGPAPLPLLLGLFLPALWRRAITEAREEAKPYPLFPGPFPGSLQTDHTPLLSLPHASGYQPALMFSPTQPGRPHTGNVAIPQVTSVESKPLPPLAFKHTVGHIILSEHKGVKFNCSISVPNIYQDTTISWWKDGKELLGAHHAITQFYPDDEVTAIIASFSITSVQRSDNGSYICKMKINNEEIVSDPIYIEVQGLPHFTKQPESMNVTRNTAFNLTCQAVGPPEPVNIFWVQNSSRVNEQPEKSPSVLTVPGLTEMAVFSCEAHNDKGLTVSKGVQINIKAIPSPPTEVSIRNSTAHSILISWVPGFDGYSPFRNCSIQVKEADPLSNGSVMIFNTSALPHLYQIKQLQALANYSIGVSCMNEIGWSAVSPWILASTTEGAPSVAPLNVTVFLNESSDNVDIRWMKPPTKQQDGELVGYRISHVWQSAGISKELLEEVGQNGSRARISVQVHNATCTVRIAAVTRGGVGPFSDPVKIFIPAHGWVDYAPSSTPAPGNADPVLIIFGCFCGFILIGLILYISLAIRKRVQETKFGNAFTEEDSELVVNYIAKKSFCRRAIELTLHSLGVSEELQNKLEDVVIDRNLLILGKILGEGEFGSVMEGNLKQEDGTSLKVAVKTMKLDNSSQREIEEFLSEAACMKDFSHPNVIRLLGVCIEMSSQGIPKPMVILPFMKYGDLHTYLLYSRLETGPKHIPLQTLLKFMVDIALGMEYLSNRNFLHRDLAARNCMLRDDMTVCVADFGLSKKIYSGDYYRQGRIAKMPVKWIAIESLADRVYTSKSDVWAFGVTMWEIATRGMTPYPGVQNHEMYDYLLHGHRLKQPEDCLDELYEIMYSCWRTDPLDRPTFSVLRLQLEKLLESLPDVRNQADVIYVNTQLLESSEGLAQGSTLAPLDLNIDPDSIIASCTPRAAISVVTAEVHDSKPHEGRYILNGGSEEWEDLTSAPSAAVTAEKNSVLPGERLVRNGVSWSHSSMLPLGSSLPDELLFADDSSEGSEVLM
quantity-name: phosphorylation enrichment

Inquiry: Given FLNSIYKCRDE [ROS1_Y2227_S2229C] , state its recorded phosphorylation enrichment.
Reply text: 0.311

Inquiry: Also check SDVCMYRKNTY [SYNE2_Y570_I574T]
Reply text: 0.403

Inquiry: Also check AAVDTVCRHNY [HLA-DRB1_Y107_Y107V]
Reply text: 0.511

Inquiry: Also check ADKSVYLMGLN [MYH7_Y386_A385V]
Reply text: 0.379

---

biological target: MERTK (UniProt Q12866); experiment: phosphorylation enrichment, bacterial display (enrichment ratio); higher = better substrate or ligand; peptides without Tyr show the background
We use 0.4 as the dividing line for phosphorylation enrichment: on or above the line is 1 (yes), below is 0 (no).

Inquiry: Decide: phosphorylation enrichment of SQDSAYHSGIQ [FLG_Y3940] >= 0.4?
Reply text: 1 (yes)

Inquiry: Also check NDQPDYDSVAS [GIT2_Y392]
Reply text: 1 (yes)

Inquiry: Also check GFEEAYSVSKK [PAFAH1B1_Y28_F31S_YF]
Reply text: 0 (no)

Inquiry: Also check CKRQFYLFKGK [RSPO4_Y112_YF]
Reply text: 1 (yes)

Inquiry: Also check QEEPEYWDQET [HLA-A_Y83_G80E]
Reply text: 0 (no)

Inquiry: Also check ENRKFYKDLKE [PURA_Y156_M157K_YF]
Reply text: 1 (yes)

Inquiry: Also check EEKKKYFDTKI [CASP5_Y103_YF]
Reply text: 0 (no)

Inquiry: Also check TFMKQYPKVFL [CNBD1_Y70]
Reply text: 0 (no)

Inquiry: Also check NCLRVYVAGRF [CRB1_Y711_E710V]
Reply text: 0 (no)

Inquiry: Also check QMVGMYASFFM [AVPR2_Y124_S127F_YF]
Reply text: 1 (yes)

Inquiry: Also check PSALGYSPSLR [LLGL2_Y40]
Reply text: 1 (yes)

Inquiry: Also check TLSGTYQYIIA [FOXL2_Y81_I80T]
Reply text: 1 (yes)

Inquiry: Also check LKETGYVVERP [BCLAF1_Y466]
Reply text: 1 (yes)

---

target: FGFR1 (UniProt P11362); test: phosphorylation enrichment, bacterial display (enrichment ratio); higher = better substrate or ligand; peptides without Tyr show the background
Sequence (P11362 whole entry, looked up): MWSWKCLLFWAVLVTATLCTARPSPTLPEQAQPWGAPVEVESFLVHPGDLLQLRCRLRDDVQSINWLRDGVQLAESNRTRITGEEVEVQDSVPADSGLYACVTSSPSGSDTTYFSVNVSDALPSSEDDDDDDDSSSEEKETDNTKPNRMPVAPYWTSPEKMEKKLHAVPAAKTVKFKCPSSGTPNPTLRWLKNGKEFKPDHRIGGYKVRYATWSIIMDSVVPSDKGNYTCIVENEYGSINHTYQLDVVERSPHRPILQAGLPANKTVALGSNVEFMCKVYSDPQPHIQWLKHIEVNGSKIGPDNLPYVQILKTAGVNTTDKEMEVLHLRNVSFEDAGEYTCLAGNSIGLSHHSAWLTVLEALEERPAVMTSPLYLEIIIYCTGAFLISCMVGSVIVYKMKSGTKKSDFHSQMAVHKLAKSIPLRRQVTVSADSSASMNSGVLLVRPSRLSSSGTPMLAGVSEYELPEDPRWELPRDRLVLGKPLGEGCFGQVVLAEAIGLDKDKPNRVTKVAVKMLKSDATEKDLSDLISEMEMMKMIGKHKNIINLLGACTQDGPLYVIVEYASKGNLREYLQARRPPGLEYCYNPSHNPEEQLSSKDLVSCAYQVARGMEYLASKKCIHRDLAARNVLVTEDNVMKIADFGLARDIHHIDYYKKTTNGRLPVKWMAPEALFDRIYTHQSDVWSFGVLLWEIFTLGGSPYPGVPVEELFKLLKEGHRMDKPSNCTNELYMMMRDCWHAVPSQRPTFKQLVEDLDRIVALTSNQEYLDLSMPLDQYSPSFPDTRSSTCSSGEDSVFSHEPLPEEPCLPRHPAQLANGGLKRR
quantity-name: phosphorylation enrichment
Give only the figure.

Inquiry: // fetch FGFR1 (UniProt P11362) phosphorylation enrichment for WRRLIYRCQVG [NR2E3_Y81_R76W]
Reply text: 0.487

Inquiry: Also check LTTEAYEWEPR [ELMOD3_Y61]
Reply text: 1.08

Inquiry: Also check MSRNLYSGDCF [DDR2_Y736_Y740C_YF]
Reply text: 0.793

Inquiry: Also check YTGNTYRVGDT [FN1_Y106]
Reply text: 0.439

Inquiry: Also check FDEFRYRSVIK [CFTR_Y517_YF]
Reply text: 0.466

Inquiry: Also check KACKHYLTKRT [ZBTB5_Y118_T121K]
Reply text: 0.629

Inquiry: Also check LPEENYQVLRF [ARHGAP1_Y365]
Reply text: 2.81

Inquiry: Also check LLILEYAKYGS [RET_Y806_V804L]
Reply text: 0.547

Inquiry: Also check MPLDQYSPSFP [FGFR1_Y776]
Reply text: 0.631

Inquiry: Also check RRGTRYMFSRP [RPL21_Y13]
Reply text: 0.859

Inquiry: Also check DGTESYHTVSS [PLK1_Y462_L463H]
Reply text: 0.558

Inquiry: Also check KDKLPYPYDDP [GPX2_Y125]
Reply text: 0.562

Inquiry: Also check GRGMPYGGRGD [TGM1_Y312_R307G]
Reply text: 0.355

Inquiry: Also check VPANRYDLLRL [FARSB_Y72_C76R]
Reply text: 0.414

Inquiry: Also check LTYHMYADPNF [SOS1_Y618]
Reply text: 4.45

Inquiry: Also check CEHRGSLFLAI [TEK_Y897_Y897S_YF]
Reply text: 0.501

Inquiry: Also check CTNIHYNYMCN [TP53_Y234_T231N]
Reply text: 0.468

Inquiry: Also check SLMNQYVNKEF [RAB7A_Y28_K32E]
Reply text: 0.373

Inquiry: Also check FSLPAFMDRRD [COX4I1_Y38_Y38F]
Reply text: 0.473

Inquiry: Also check VLALWYYYLTN [ZDHHC23_Y127_H132N]
Reply text: 8.15

Inquiry: Also check VGEGPYLLSDL [ABCC12_Y7_I9L]
Reply text: 0.484

Inquiry: Also check VDTRAYLTSAT [MT-CO1_Y304_F305L]
Reply text: 0.518

Inquiry: Also check HKANEYFPVVI [ADAMTS18_Y764_L769I_YF]
Reply text: 11.8

Inquiry: Also check IKNFKYGIEEH [GJA1_Y137_K134N]
Reply text: 0.388

Inquiry: Also check LHNLFYQLEAE [PKP2_Y616_S615F]
Reply text: 1.02

Inquiry: Also check IMWDSYTTNKV [GNB3_Y85_V81M]
Reply text: 0.451

Inquiry: Also check IGEVVYQRAAM [GRIN2A_Y502_V506A]
Reply text: 0.438

Inquiry: Also check VTAALYGRLYE [BTD_Y536]
Reply text: 0.498

Inquiry: Also check KDQPDYKYQPR [SOX9_Y172_H169Q]
Reply text: 0.431

---

system: AncSZ; assay: phosphorylation enrichment, bacterial display (enrichment ratio); higher = better substrate or ligand; peptides without Tyr show the background
Field: phosphorylation enrichment. Provide a value for each of the sequences that follow.

Inquiry: Given KNNDGNIDFAE [MCFD2_Y135_Y135N_YF] , state its recorded phosphorylation enrichment.
Reply text: 1.07

Inquiry: Also check WRRLIYRCQVG [NR2E3_Y81_R76W]
Reply text: 0.906

Inquiry: Also check LTTEAYEWEPR [ELMOD3_Y61]
Reply text: 1.69

Inquiry: Also check RHFVFYFSFLL [PTEN_Y177_R173H_YF]
Reply text: 1.26

Inquiry: Also check KDQPDYKYQPR [SOX9_Y172_H169Q]
Reply text: 0.705

Inquiry: Also check LERYIYNRQEF [HLA-DPB1_Y59_E62Q]
Reply text: 1.05

Inquiry: Also check KVGNEYVNKGQ [MYH7_Y410_T412N]
Reply text: 0.581

Inquiry: Also check FDNPVCQKTTE [LDLR_Y828_Y828C]
Reply text: 1.1

Inquiry: Also check YCIDHYLGKEM [G6PD_Y202_R198C]
Reply text: 0.892

Inquiry: Also check FASTGYGIAIQ [GRIN2B_Y762]
Reply text: 0.655

Inquiry: Also check DRQASYLDKVR [KRT16_Y131_L128Q]
Reply text: 0.536

Inquiry: Also check VGEGPYLLSDL [ABCC12_Y7_I9L]
Reply text: 0.839

Inquiry: Also check CTNIHYNYMCN [TP53_Y234_T231N]
Reply text: 0.754

Inquiry: Also check DDFDLYGGEKF [PTPN11_Y66_Y62D_YF]
Reply text: 1.28

Inquiry: Also check CTTIHYDFMCN [TP53_Y234_N235D_YF]
Reply text: 1.16

Inquiry: Also check FIGCIYLYLTK [GARS1_Y414_R412C]
Reply text: 1.02

Inquiry: Also check PVDTFYDSTRG [DYNC2H1_Y2231_M2227V_YF]
Reply text: 0.973

Inquiry: Also check IFETDYFRKGG [INSR_Y1189_YF]
Reply text: 0.988

Inquiry: Also check AAVDEYLEFRR [FAM221A_Y17_YF]
Reply text: 1.14

Inquiry: Also check YRDMDYRSYPH [RBM10_Y41_R46H]
Reply text: 0.567

Inquiry: Also check GQECEYPPTQD [METAP2_Y137]
Reply text: 1.34

Inquiry: Also check AASHRYDLGGL [QPRT_Y162]
Reply text: 0.491

Inquiry: Also check RRIHSYRGQLW [VHL_Y112_H115Q]
Reply text: 1.25

Inquiry: Also check KVDKECEVRVR [GHR_Y226_Y226C]
Reply text: 0.739

Inquiry: Also check LHNLFYQLEAE [PKP2_Y616_S615F]
Reply text: 2.35

Inquiry: Also check QRALLYEDALY [UNC13D_Y56]
Reply text: 2.17

Inquiry: Also check PKEEPYQMQEK [SLC5A3_Y565]
Reply text: 2.33

Inquiry: Also check PSPTKYSLSPS [RANBP2_Y785_R784K]
Reply text: 1.19

Inquiry: Also check GSESDYIVMPN [SCARB1_Y133]
Reply text: 2.88

Inquiry: Also check VIKDKYPKAHF [APTX_Y209_R213H_YF]
Reply text: 0.523

Inquiry: Also check HEGKIYEFNQV [ZNF665_Y162_YF]
Reply text: 0.796

meta.source: the supplement of paper PMC10065799
